// data source = patent US6750228B1

Target: MMP-2 (Homo sapiens, UniProt P08253)
Construct: made in house; provided by Dr. Gregory Goldberg, Washington University
Sequence (P08253 110-660): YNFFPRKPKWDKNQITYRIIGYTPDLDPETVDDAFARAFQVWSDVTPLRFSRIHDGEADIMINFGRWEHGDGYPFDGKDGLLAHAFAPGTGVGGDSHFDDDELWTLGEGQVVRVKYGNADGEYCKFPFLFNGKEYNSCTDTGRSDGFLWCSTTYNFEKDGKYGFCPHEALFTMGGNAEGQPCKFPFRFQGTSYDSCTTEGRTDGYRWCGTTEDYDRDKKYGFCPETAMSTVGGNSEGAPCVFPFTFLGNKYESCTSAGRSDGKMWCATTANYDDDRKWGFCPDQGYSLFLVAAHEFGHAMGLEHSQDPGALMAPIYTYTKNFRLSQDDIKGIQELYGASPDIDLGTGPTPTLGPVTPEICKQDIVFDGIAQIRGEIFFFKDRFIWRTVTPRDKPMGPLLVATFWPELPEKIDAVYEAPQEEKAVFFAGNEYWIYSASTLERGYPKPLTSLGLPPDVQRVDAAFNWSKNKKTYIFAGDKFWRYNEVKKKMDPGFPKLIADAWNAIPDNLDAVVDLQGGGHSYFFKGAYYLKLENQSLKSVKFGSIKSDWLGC
Assay: biochemical
Conditions: recombinant human MMP-2, MCA peptide substrate 4 μM, pH 7.5, room temperature; read-out: MMP-2 IC50
Where a name gives a salt, the structure may show the parent alone.
Reported Metric: pIC50
Answers are plain numbers, as −log10 of the molar value.

Molecule: COc1ccc(C(=O)C2CCN(c3ccc(S(=O)(=O)C4(C(=O)NO)CCOCC4)cc3)CC2)cc1F [Example 735]
Target Entity: MMP-2 (Homo sapiens, UniProt P08253)
pIC50: 6.10
--
Molecule: COCCN1CCC(C(=O)NO)(S(=O)(=O)c2ccc(N3CCC(C(=O)NC4Cc5ccccc5C4)CC3)cc2)CC1 [Example 242, Monohydrochloride]
Target Entity: MMP-2 (Homo sapiens, UniProt P08253)
pIC50: 5.82

Switching to the query record.
Give MMP-2 (Homo sapiens, UniProt P08253) pIC50 for CC(C)NC(=O)OC1CCN(c2ccc(S(=O)(=O)C3(C(=O)NO)CCOCC3)cc2)CC1 [Example 517]
5.96

* * *

Would you kindly list IC50 for each of these compounds?
Target: MMP-2 (Homo sapiens, UniProt P08253)
Construct: made in house; provided by Dr. Gregory Goldberg, Washington University
Assay: biochemical
Details: recombinant human MMP-2, MCA peptide substrate 4 μM, pH 7.5, room temperature; read-out: MMP-2 IC50
One number for each entry, in nM.

These solved cases illustrate the format of a correct answer.
Compound: CC1CC(C)CN(C(=O)C2CCN(c3ccc(S(=O)(=O)C4(C(=O)NO)CCN(C(=O)CN5CCN(CCOCCO)CC5)CC4)cc3)CC2)C1 (centres unmarked)
IC50 [nM]: 9000

Compound: N#Cc1cccc(COC2CCN(c3ccc(S(=O)(=O)C4(C(=O)NO)CCOCC4)cc3)CC2)c1
IC50 [nM]: 306

Compound: COCCN1CCN(CC(=O)N2CCC(C(=O)NO)(S(=O)(=O)c3ccc(Oc4ccc(C(F)(F)F)cc4)cc3)CC2)CC1
IC50 [nM]: 0.7

Switching to the query record.
Need IC50 of CCOCC1CCCN(c2ccc(S(=O)(=O)C3(C(=O)NO)CCOCC3)cc2)C1 (centres unmarked) , thanks.
235

* * *

Target: MMP-2 (Homo sapiens, UniProt P08253)
Construct: made in house; provided by Dr. Gregory Goldberg, Washington University
Experiment: biochemical
Conditions: recombinant human MMP-2, MCA peptide substrate 4 μM, pH 7.5, room temperature; read-out: MMP-2 IC50
pIC50: −log10 of the molar value.
Reported Metric: pIC50

Compound: CCCN(CC(=O)N1CCC(C(=O)NO)(S(=O)(=O)c2ccc(N3CCC(C(=O)N4CC(C)CC(C)C4)CC3)cc2)CC1)CC1CC1 (stereo not drawn)
Target Entity: MMP-2 (Homo sapiens, UniProt P08253)
Recorded Measurement: < 5.00

Would you mind listing pIC50 for each of the following compounds?
1. CC1CC(C)CN(C(=O)C2CCN(c3ccc(S(=O)(=O)C4(C(=O)NO)CCN(C(=O)CN5CCC(C(N)=O)CC5)CC4)cc3)CC2)C1 (stereo not drawn)
2. O=C(NO)C1(S(=O)(=O)c2ccc(Oc3ccc(OC(F)(F)F)cc3)cc2)CCN(C(=S)NCCN2CCOCC2)CC1

["< 5.00", "> 10.00"]

* * *

Would you kindly list IC50 for each of these molecules?
Molecular target: MMP-13 (Homo sapiens)
Construct: made in house; host or cells: baculovirus / insect cells
Assay: biochemical
Conditions: recombinant human MMP-13, MCA peptide substrate 4 μM, pH 7.5, room temperature; read-out: MMP-13 IC50
Give bare numbers, in nM.

These solved cases illustrate the format of a correct answer.
Molecule: O=C(NO)C1(S(=O)(=O)c2ccc(N3CCC(Oc4ccccc4)CC3)cc2)CCOCC1 [Example 185]
Endpoint Unit: nM
IC50: 2.2
--
Molecule: O=C(NO)C1(S(=O)(=O)c2ccc(N3CCC(Oc4ccc(Br)cc4)CC3)cc2)CCOCC1 [Example 479]
Endpoint Unit: nM
IC50: 5
--
Molecule: O=C(NO)C1(S(=O)(=O)c2ccc(N3CCN(c4ccccc4Cl)CC3)cc2)CCOCC1 [Example 88]
Endpoint Unit: nM
IC50: 9
--
Molecule: CC(C)CC(=O)C1CCN(c2ccc(S(=O)(=O)C3(C(=O)NO)CCOCC3)cc2)CC1 [Example 756]
Endpoint Unit: nM
IC50: 7
--
Molecule: Cc1ccc(C(=O)C2CCN(c3ccc(S(=O)(=O)C4(C(=O)NO)CCOCC4)cc3)CC2)cc1C [Example 737]
Endpoint Unit: nM
IC50: 3

Need IC50 of COc1ccccc1NC(=O)N1CCC(C(=O)NO)(S(=O)(=O)c2ccc(Oc3ccc(OC(F)(F)F)cc3)cc2)CC1 [Example 357] , thanks.
0.3

* * *

Would you kindly list pIC50 for each of these compounds?
Target: MMP-2 (Homo sapiens)
Construct: made in house; provided by Dr. Gregory Goldberg, Washington University
Test: biochemical
Settings: recombinant human MMP-2, MCA peptide substrate 4 μM, pH 7.5, room temperature; read-out: MMP-2 IC50
Where a name gives a salt, the structure may show the parent alone.
Numbers only, as −log10 of the molar value.

Compound: CC(C)CN(C)C(=O)C1CCN(c2ccc(S(=O)(=O)C3(C(=O)NO)CCOCC3)cc2)CC1
Recorded Measurement: 5.40
--
Compound: COCCN1CCC(C(=O)NO)(S(=O)(=O)c2ccc(N3CCC(C(=O)Nc4cccc(OC(F)(F)F)c4)CC3)cc2)CC1 [Example 249, Monohydrochloride]
Recorded Measurement: 6.63
--
Compound: CC(C)(Cl)CC(=O)C1CCN(c2ccc(S(=O)(=O)C3(C(=O)NO)CCOCC3)cc2)CC1
Recorded Measurement: 7.60
--
Compound: CN(Cc1cccnc1)C(=O)C1CCN(c2ccc(S(=O)(=O)C3(C(=O)NO)CCOCC3)cc2)CC1
Recorded Measurement: 5.10
--
Compound: CS(=O)(=O)N1CCC(C2CCN(c3ccc(S(=O)(=O)C4(C(=O)NO)CCOCC4)cc3)CC2)CC1
Recorded Measurement: 7.63

Switching to the query record.
Need pIC50 of CC(C)c1ccc(C(=O)C2CCN(c3ccc(S(=O)(=O)C4(C(=O)NO)CCOCC4)cc3)CC2)cc1 , thanks.
6.35

* * *

Molecular target: MMP-2 (Homo sapiens)
Construct: made in house; provided by Dr. Gregory Goldberg, Washington University
Sequence (P08253 110-660): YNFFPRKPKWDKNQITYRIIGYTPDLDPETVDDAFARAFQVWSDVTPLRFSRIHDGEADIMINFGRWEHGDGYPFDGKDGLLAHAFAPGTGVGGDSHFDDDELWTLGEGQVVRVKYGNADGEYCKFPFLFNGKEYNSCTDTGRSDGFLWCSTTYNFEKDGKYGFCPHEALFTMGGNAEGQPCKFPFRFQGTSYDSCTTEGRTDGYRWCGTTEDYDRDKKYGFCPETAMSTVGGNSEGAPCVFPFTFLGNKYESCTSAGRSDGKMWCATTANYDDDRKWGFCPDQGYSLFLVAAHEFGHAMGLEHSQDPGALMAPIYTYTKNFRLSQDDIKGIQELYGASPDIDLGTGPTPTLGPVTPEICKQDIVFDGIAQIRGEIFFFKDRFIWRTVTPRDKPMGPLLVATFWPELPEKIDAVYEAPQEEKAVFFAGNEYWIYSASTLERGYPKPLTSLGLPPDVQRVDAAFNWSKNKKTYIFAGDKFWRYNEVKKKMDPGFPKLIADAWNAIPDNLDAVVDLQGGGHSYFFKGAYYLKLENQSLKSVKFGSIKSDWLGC
Assay: biochemical
Conditions: recombinant human MMP-2, MCA peptide substrate 4 μM, pH 7.5, room temperature; read-out: MMP-2 IC50
Where a name gives a salt, the structure may show the parent alone.
Reported Metric: pIC50
Give bare numbers, as −log10 of the molar value.

These solved cases illustrate the format of a correct answer.
Compound: O=C(Nc1ccccc1)C1CCN(c2ccc(S(=O)(=O)C3(C(=O)NO)CCN(C4CC4)CC3)cc2)CC1 [Example 243, Monohydrochloride]
Target Entity: MMP-2 (Homo sapiens)
pIC50: 6.38
--
Compound: O=C(NO)C1(S(=O)(=O)c2ccc(N3CCCC(COCc4ccc(Cl)c(Cl)c4)C3)cc2)CCOCC1 (stereo not drawn) [Example 508]
Target Entity: MMP-2 (Homo sapiens)
pIC50: 6.68
--
Compound: CCOCc1ccc(COC2CCN(c3ccc(S(=O)(=O)C4(C(=O)NO)CCOCC4)cc3)CC2)cc1 [Example 472]
Target Entity: MMP-2 (Homo sapiens)
pIC50: 6.70
--
Compound: O=C(NO)C1(S(=O)(=O)c2ccc(Oc3ccc(C(F)(F)F)cc3)cc2)CCN(S(=O)(=O)c2ccc(C(F)(F)F)cc2)CC1 [Example 143]
Target Entity: MMP-2 (Homo sapiens)
pIC50: 7.84

Would you mind listing pIC50 for each of the following compounds?
1. CCOc1ccc(NC(=O)OC2CCN(c3ccc(S(=O)(=O)C4(C(=O)NO)CCOCC4)cc3)CC2)cc1 [Example 190]
2. Cc1cccc(N2CCN(c3ccc(S(=O)(=O)C4(C(=O)NO)CCOCC4)cc3)CC2)c1C [Example 490]
3. O=C(Nc1ccccc1)OC1CCN(c2ccc(S(=O)(=O)C3(C(=O)NO)CCOCC3)cc2)CC1 [Example 515]
4. O=C(NO)C1(S(=O)(=O)c2ccc(N3CCC(OCc4cccc(Cl)c4)CC3)cc2)CCOCC1 [Example 573]
5. CCN(CC)Cc1ccc(COC2CCN(c3ccc(S(=O)(=O)C4(C(=O)NO)CCOCC4)cc3)CC2)cc1 [Example 523]
6. O=C(NO)C1(S(=O)(=O)c2ccc(N3CCN(S(=O)(=O)c4cccs4)CC3)cc2)CCOCC1 [Example 685]
7. CCC(C)OCc1ccc(COC2CCN(c3ccc(S(=O)(=O)C4(C(=O)NO)CCOCC4)cc3)CC2)cc1 (stereo not drawn) [Example 556]

1: 6.87; 2: 5.52; 3: 7.57; 4: 6.63; 5: 6.72; 6: 7.46; 7: 6.77

Need pIC50 of O=C(Nc1ccncn1)C1CCN(c2ccc(S(=O)(=O)C3(C(=O)NO)CCOCC3)cc2)CC1 [Example 74] , thanks.
7.10
